assayed system: Delta-type opioid receptor (Mus musculus)
Sequence (P32300 whole entry): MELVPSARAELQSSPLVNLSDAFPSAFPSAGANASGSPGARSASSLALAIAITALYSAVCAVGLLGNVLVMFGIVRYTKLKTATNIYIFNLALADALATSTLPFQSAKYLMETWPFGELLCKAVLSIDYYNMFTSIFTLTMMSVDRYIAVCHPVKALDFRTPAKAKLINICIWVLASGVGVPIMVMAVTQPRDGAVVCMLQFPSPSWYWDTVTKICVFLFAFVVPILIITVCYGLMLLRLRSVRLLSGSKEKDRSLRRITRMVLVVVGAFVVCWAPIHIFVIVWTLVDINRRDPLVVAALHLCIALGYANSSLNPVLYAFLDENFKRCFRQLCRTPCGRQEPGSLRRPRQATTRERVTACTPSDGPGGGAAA
test method notes: Agonistic activity against delta opioid receptor of mouse vas deferens assay
pIC50: −log10 of the molar value. Where a SMILES comes first, the peptide text is derived from it. [ ]: non-standard residue; d: D form. The star is where a group is joined. Dmt = Cc1cc(O)cc(C)c1C[C@H](N)C(=O)O; Tic = O=C(O)[C@@H]1Cc2ccccc2CN1; Cbz = O=C(OCc1ccccc1)*
result type: pIC50

{"columns": ["molecule", "result type", "result qualifier", "obs value"],
 "data": [
  ["Cc1cc(O)cc(C)c1C[C@H](N)C(=O)N[C@H](CCC/N=C(/N)N[N+](=O)[O-])C(=O)N[C@@H](Cc1ccccc1)C(=O)N[C@@H](CCCCNC(=O)OCc1ccccc1)C(=O)O", "pIC50", "=", 6.17],
  ["Cc1cc(O)cc(C)c1C[C@H](N)C(=O)N1Cc2ccccc2C[C@H]1C(=O)N[C@@H](Cc1ccccc1)C(=O)N[C@@H](CCCCNC(=O)OCc1ccccc1)C(=O)O (H-[Dmt][Tic]FK(Cbz)-OH)", "pIC50", "<", 5.00],
  ["Cc1cc(O)cc(C)c1C[C@H](N)C(=O)N[C@H](CCCN=C(N)N[N+](=O)[O-])C(=O)N[C@@H](Cc1ccccc1)C(=O)N[C@@H](CCCCNC(=O)OCc1ccccc1)C(N)=O", "pIC50", "=", 8.77],
  ["Cc1cc(O)cc(C)c1C[C@H](N)C(=O)N1Cc2ccccc2C[C@H]1C(=O)N[C@@H](Cc1ccccc1)C(=O)N[C@@H](CCCCNC(=O)OCc1ccccc1)C(N)=O (H-[Dmt][Tic]FK(Cbz)-NH2)", "pIC50", "<", 5.00]
]}

###

assayed system: Mu-type opioid receptor (Cavia porcellus)
Sequence (P97266 whole entry): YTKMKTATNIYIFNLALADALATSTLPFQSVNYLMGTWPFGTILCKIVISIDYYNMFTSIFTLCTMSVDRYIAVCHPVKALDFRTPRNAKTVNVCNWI
test method notes: Agonist activity against mu opioid receptor of guinea pig ileum
Type: functional, tissue-based
pIC50: −log10 of the molar value. Where a SMILES comes first, the peptide text is derived from it. [ ]: non-standard residue; d: D form. The star is where a group is joined. Dmt = Cc1cc(O)cc(C)c1C[C@H](N)C(=O)O; Tic = O=C(O)[C@@H]1Cc2ccccc2CN1; Cbz = O=C(OCc1ccccc1)*
Property: pIC50; scope: individual molecules

{"columns": ["molecule", "result qualifier", "pIC50"],
 "data": [
  ["Cc1cc(O)cc(C)c1C[C@H](N)C(=O)N1Cc2ccccc2C[C@H]1C(=O)N[C@@H](Cc1ccccc1)C(=O)N[C@@H](CCCCNC(=O)OCc1ccccc1)C(=O)O (H-[Dmt][Tic]FK(Cbz)-OH)", "<", 5.00],
  ["Cc1cc(O)cc(C)c1C[C@H](N)C(=O)N[C@H](CCCN=C(N)N[N+](=O)[O-])C(=O)N[C@@H](Cc1ccccc1)C(=O)N[C@@H](CCCCNC(=O)OCc1ccccc1)C(N)=O", "=", 9.29],
  ["Cc1cc(O)cc(C)c1C[C@H](N)C(=O)N[C@H](CCC/N=C(/N)N[N+](=O)[O-])C(=O)N[C@@H](Cc1ccccc1)C(=O)N[C@@H](CCCCNC(=O)OCc1ccccc1)C(=O)O", "=", 7.20],
  ["Cc1cc(O)cc(C)c1C[C@H](N)C(=O)N1Cc2ccccc2C[C@H]1C(=O)N[C@@H](Cc1ccccc1)C(=O)N[C@@H](CCCCNC(=O)OCc1ccccc1)C(N)=O (H-[Dmt][Tic]FK(Cbz)-NH2)", "=", 5.72]
]}
